- Target Entity: human 5-HTR4b (Homo sapiens)
- Sequence (Q13639 whole entry): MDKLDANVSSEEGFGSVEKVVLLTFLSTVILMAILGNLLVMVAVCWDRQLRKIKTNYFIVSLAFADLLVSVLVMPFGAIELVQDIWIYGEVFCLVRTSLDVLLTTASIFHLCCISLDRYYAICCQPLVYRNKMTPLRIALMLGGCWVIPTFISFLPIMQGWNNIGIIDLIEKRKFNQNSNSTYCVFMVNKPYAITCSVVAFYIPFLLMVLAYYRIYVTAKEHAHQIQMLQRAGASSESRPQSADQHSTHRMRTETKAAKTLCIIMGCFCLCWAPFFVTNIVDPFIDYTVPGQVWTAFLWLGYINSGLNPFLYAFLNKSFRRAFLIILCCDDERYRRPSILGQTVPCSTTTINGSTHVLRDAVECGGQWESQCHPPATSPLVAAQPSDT
- Method Summary: Luciferase-based 5-HTR4b assay in yeast
- Type: cell-based
- Condition Summary: 5-HTR4b assay strain vs control strain with blank plasmid in lieu of 5-HTR4b
Quantity: confirmation as 5-HTR4b ligand by dose response curves

>>> reported_measurement("CCn1cc(C(=O)O)c(=O)c2ccc(C)nc21")
"could not confirm"
>>> reported_measurement("COc1ccc(-c2oc3c(CC=C(C)C)c(O)cc(O)c3c(=O)c2O[C@@H]2O[C@@H](C)[C@H](O)[C@@H](O)[C@H]2O)cc1 [baohuoside I]")
"could not confirm"
>>> reported_measurement("O=C(O)CCCc1c[nH]c2ccccc12")
"could not confirm"
